# TGI listing for each entry below
# Test system: K-562 leukemia
# Assay method text: NCI tumour cell line growth inhibition, 48 h

[
  {
    "Compound": "Cc1ccc(S(=O)(=O)NC(=O)Nc2nnc(S(N)(=O)=O)s2)cc1",
    "Target": "K-562 leukemia",
    "Assay metric": "TGI",
    "Result": "> 100 µM"
  }
]

Name the reported TGI value associated with the compound "O=c1[nH]cc(NCCCl)c(=O)[nH]1"
> 100 µM

Name the reported TGI value associated with the compound "Clc1ccc(-c2cn3ccnc3c(-c3ccc(Cl)cc3)n2)cc1"
> 100 µM

Name the reported TGI value associated with the compound CC1=NNC(=O)C1C1C(=O)NN=C(c2c[nH]c3ccccc23)C1Br (stereo not drawn)
> 100 µM

Name the reported TGI value associated with the compound "CCC/C(Cl)=N\OC(=O)Nc1ccc(F)cc1"
4 µM

Name the reported TGI value associated with the compound "O=S1(=O)c2ccccc2Oc2ccc(C(/C=N/O)=N/O)cc21"
> 100 µM

Name the reported TGI value associated with the compound CC1CC[C@@]2(OC1)OC1C[C@H]3[C@@H]4CC=C5CC(OC6OC(CO)C(OC7OC(CO)C(O)C(OC8OCC(O)C(O)C8O)C7OC7OC(CO)C(OC8OC(C)C(OC9OC(C)C(O)C(O)C9O)C(O)C8O)C(O)C7O)C(O)C6O)CCC5(C)[C@H]4CCC3(C)C1[C@@H]2C (stereo partly drawn)
19.6 µM

Name the reported TGI value associated with the compound "CCc1c(C#N)c(=O)[nH]c(=O)n1CCN1CCN(C(=O)NCCCCCCNC(=O)N2CCN(CCn3c(CC)c(C#N)c(=O)[nH]c3=O)CC2)CC1"
> 100 µM

Name the reported TGI value associated with the compound "CCSCCCSCCSCC"
> 100 µM

Name the reported TGI value associated with the compound "COC(=O)c1sc(C(=O)OC)c2c1CS(=O)C2"
> 100 µM

Name the reported TGI value associated with the compound CCOC(=O)C(C#N)(Cc1c[nH]c2ccccc12)NC(C)=O (stereo not drawn)
> 100 µM

Name the reported TGI value associated with the compound C=C1CCC2C3(C)COC(C)(C)OC3CCC2(C)C1C/C=C1/C(=O)OCC1OC(C)=O (stereo not drawn)
23.2 µM

Name the reported TGI value associated with the compound "COc1ccc(C2=Nn3c(nnc3-c3cc(Cl)cc(Cl)c3Cl)SC2)cc1"
> 31.6 µM

Name the reported TGI value associated with the compound COc1cccc(N2C(=O)CSC2c2cccc(Oc3ccccc3)c2)c1 (stereo not drawn)
11.4 µM

Name the reported TGI value associated with the compound "C[N+](C)(C)CCC(=O)CC[N+](C)(C)C"
24.3 µM

Data origin, for the record: PubChem BioAssay (NCI)
